Target: human ferroportin (Homo sapiens)
Construct: luciferase reporter (probably NanoLuc, inferred from the Nano-Glo Luciferase Assay System read-out); expressed in transfected cells; host or cells: CHO cells, stably transfected, expression induced with doxycycline
Sequence (Q9NP59 1-571): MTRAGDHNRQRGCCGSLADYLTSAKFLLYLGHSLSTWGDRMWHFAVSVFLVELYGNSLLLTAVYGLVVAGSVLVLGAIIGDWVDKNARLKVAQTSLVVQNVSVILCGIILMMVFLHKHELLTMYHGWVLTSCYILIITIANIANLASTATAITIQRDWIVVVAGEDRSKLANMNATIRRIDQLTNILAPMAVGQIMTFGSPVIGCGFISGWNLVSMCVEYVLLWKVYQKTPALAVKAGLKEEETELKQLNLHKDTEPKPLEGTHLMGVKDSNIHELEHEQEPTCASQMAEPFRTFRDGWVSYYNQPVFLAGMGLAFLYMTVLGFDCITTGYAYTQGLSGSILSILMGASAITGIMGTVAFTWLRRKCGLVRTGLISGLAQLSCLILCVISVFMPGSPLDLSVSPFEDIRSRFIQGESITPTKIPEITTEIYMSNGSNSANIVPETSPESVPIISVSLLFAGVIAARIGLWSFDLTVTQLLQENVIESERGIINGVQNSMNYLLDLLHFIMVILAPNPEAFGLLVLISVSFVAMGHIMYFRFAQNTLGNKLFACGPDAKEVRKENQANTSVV
Assay: In-vitro ferroportin internalization assay (luciferase reporter)
Assay type: cell-based
Conditions: average pEC50; stably-transfected CHO cell line expressing human ferroportin tagged to a luciferase reporter; 6 h incubation with test compound
Experimental: The protocol for this assay is generally as described in WO2018/128828, incorporated herein by reference in its entirety. Functional internalization of ferroportin protein was measured using a stably-transfected CHO cell line expressing the human ferroportin tagged to a luciferase reporter. […] Cells were incubated with the test compounds for 6 h, and subsequently luciferase activity was measured using the Nano-Glo Luciferase Assay System and Glomax (Promega, Madison, Wis.). […]
Please go through the items and note down their pEC50.

// query I'd like to know its pEC50. The compound in question is O=C(CNc1nc(-c2ccccn2)nc2scc(-c3ccccc3)c12)NC1CC1 [Compound 218]
// result 5.5

// query Same thing, different compound: COc1ccc(NC(=O)C(C(C)C)N(C)c2nc(-c3ccccn3)nc3c2CCC3)cn1 (single isomer, unassigned) [Compound 316]
// result 7.2

// query Same thing, different compound: O=C(O)CCCCCNc1nc(-c2ccccn2)nc2c1CCC2 [Compound 186]
// result 5.3

// query Same thing, different compound: CN(CC(=O)NC(C)(C)C)c1nc(-c2cc(OC[C@H](O)CO)ccn2)nc2c1CCC2 [Compound 484]
// result 7.7

====

Please go through the items and note down their pEC50.
target: human ferroportin (Homo sapiens); construct: luciferase reporter (probably NanoLuc, inferred from the Nano-Glo Luciferase Assay System read-out); expressed in transfected cells; host or cells: CHO cells, stably transfected, expression induced with doxycycline; test: In-vitro ferroportin internalization assay (luciferase reporter); type: cell-based; conditions: average pEC50; stably-transfected CHO cell line expressing human ferroportin tagged to a luciferase reporter; 6 h incubation with test compound

// query Param readout = pEC50; param system = human ferroportin (Homo sapiens); param query = Cc1sc2nc(-c3ccccn3)nc(N(C)CC(=O)Nc3cccnc3)c2c1C ; response: value
// result 7.1

// query Same thing, different compound: CN(C)CCOc1ccnc(-c2nc3c(c(N(C)CC(=O)NC(C)(C)C)n2)CCC3)c1
// result 7.7

// query Same thing, different compound: CNC(=O)CCN(C)c1nc(-c2ccccn2)nc2scc(-c3ccccc3)c12
// result 5.7

// query Same thing, different compound: Cc1sc2nc(-c3ccccn3)nc(N(C)CC(=O)N(C)C)c2c1C
// result 6.9

// query Same thing, different compound: Cc1cc(NC[C@@H](O)CN2CCCCC2)nc(-c2ccccn2)n1
// result 5.4

// query Same thing, different compound: COc1ccc(NC(=O)[C@@H](C(C)C)N(C)c2nc(-c3ccccn3)nc3c2CCC3)cn1
// result 7.3

// query Same thing, different compound: Cc1cc(NCCCn2ccnc2)nc(-c2ccccn2)n1
// result <5.0

// query Same thing, different compound: NC(=O)NCCCCNc1nc(-c2ccccn2)nc2scc(-c3ccccc3)c12
// result 6

// query Same thing, different compound: CN(c1nc(-c2ccccn2)nc2c1CCC2)C1CCc2ccccc21 (stereo not drawn)
// result 6.3
